# Tested on: HCT-116 colon
# test_method_notes: NCI-60 one-dose screen, 48 h (100 = growth as untreated, 0 = no growth, -100 = all killed)
# test_parameters: 10 µM unless noted
About 83,000 compounds went through this panel and 20% of them were active in at least one assay; those are over-represented in the sample as a whole.
measured_metric: growth (%)
Give just the number in %; leave the unit off.

What does the data say about its growth? Entry: CC(C)(C)CC(C)(C)Nc1c(-c2c(O)c3ccccc3oc2=O)nc2c(Cl)cc(C(F)(F)F)cn12
70.4

// lookup growth for CCCCN1C(=O)c2cccc3c(-c4ccc5c(c4)ncn5C4CCCCC4)ccc(c23)C1=O
91.7

Record request: growth value, item COc1ccc(C(=O)N2c3ccccc3Sc3ccccc32)c(F)c1
20.1

GET /values?readout=growth&item= COc1ccc2c(CCc3ccc(Cl)cc3)c3[n+](cc2c1OC)CCc1cc2c(cc1-3)OCO2
36.5

Bench note: what growth did CC(=O)c1c(C)c2cnc(Nc3ccc(N4CCNCC4)cn3)nc2n(C2CCCC2)c1=O show?
10.6

Returns the measured growth for the input molecule. Input: Ic1ccccc1-c1ccccc1
111

Return reported growth; argument: C=CCN1C(=O)c2cccc3c(-c4ccc5c(c4)ncn5C4CCCCC4)ccc(c23)C1=O
32

Query: growth; subject: C=CC(=O)N(C)[C@H]1C[C@H]2OC(C)(C1OC)n1c3ccccc3c3c4c(c5c6ccccc6n2c5c31)C(=O)NC4 (stereo not given in full)
-48.4

Given the molecule COc1cc2c(cc1OCCCN1Cc3ccc(OCCCCC(=O)N4CCC(CCN5CCCC5)CC4)cc3C1)N=C(N)C21CCCC1 , what is its reported growth?
68.1

# query: growth of entry O=C(Cn1ccnc1)Nc1ccc(-c2nc3ccccc3s2)cc1
68.2

Dear colleague, I am looking for the recorded growth of the following molecule: c1cn2cc(-c3ccc4cn[nH]c4c3)nc(Nc3ccc(N4CCOCC4)cc3)c2n1
52.4

Please give the measured growth for this molecule: CCc1cnn2c(NCc3ccc[n+]([O-])c3)cc(N3CCCC[C@H]3CCO)nc12
1.22

Consider the molecule CC[n+]1c(/C=C/C=C2\N(C)c3ccccc3C2(C)C)sc2ccccc21 and give its measured growth.
7.25

For the molecule shown here, O=C(NO)c1ccc(Cn2c(=O)n(CCc3ccccc3)c(=O)c3ccccc32)cc1 , give the reported growth.
4.18

For the molecule shown here, NC(=O)c1n[nH]n2c1nc(=O)c1c3c(sc12)CCCC3 , give the reported growth.
104

Recorded growth for CCCCCC(=O)OCc1ccc(Cl)c(Cl)c1 , please?
101

Sample COc1ccc(C2CC(=O)c3c(O)c(OC)c(OC)c(OC)c3O2)cc1O (stereo not given) — what was its growth?
7.57

Item under review: COc1cnc2c(c1)C(=O)c1c-2n(CCCNC2=NCCS2)c(=O)c2cc(Cl)ccc12 . Reported growth?
-87.8

Given the molecule CNC(=O)c1c(C)oc2cc(Oc3ncnc4cc(OC)c(OC)cc34)ccc12 , what is its reported growth?
93.7

Item CS(=O)(=O)CCNCc1ccc(-c2ccc3ncnc(Nc4ccc(OCc5cccc(F)c5)c(Cl)c4)c3c2)o1 has what recorded growth?
41.2

====

# System: OVCAR-8 ovarian
# test_method_notes: NCI-60 one-dose screen, 48 h (100 = growth as untreated, 0 = no growth, -100 = all killed)
# test_parameters: 10 µM unless noted
Compounds without any hit were thinned out: in the full panel of roughly 83,000, 20% have a hit.
Label no if growth falls below 80%; label yes in every other case.

Identify whether the reported growth of the following compound is 80% or greater: CCCS(=O)(=O)Nc1ccc(F)c(C(=O)c2c[nH]c3ncc(-c4ccc(Cl)cc4)cc23)c1F
no

Is the recorded value of growth equal to or greater than 80% for this compound? N#Cc1cc2[nH]c3ccc(OC(F)(F)F)cc3c2oc1=O
yes

Is the recorded value of growth equal to or greater than 80% for this compound? CC/C(=C(\c1ccc(OCCN2CCCCCCC2)cc1)c1ccc(OC(=O)C2CCCCC2)cc1)c1ccc(Cl)cc1
yes

Entry CCCCCCC1(/C=N/NC(N)=O)NC(=O)NC1=O (centres undefined) : is its growth no less than 80%?
yes

Is the recorded value of growth equal to or greater than 80% for this compound? COC(=O)[C@]12CC[C@@H](C)[C@H](C)[C@@H]1C1=CC[C@@H]3[C@@]4(C)C(C=O)=C[C@@](C)(COS(C)(=O)=O)C4=CC[C@@]3(C)[C@]1(C)CC2
no

Is the recorded value of growth equal to or greater than 80% for this compound? COc1ccc(Nc2ncccc2NC(=O)c2cn(Cc3cccc(Oc4ccccc4)c3)nn2)cc1
yes

Confirm if growth reported for the compound NC(=O)Nc1cc(-c2cccc(F)c2)sc1C(=O)N[C@H]1CCCNC1 is 80% or above.
no

Kindly determine if growth recorded for COC(=O)[C@]12CC[C@@H](C)[C@H](C)[C@@H]1C1=CC[C@@H]3[C@@]4(C)C(c5cnco5)=C[C@@](C)(CO)C4=CC[C@@]3(C)[C@]1(C)CC2 is above or exactly 80%.
no

Identify whether the reported growth of the following compound is 80% or greater: C=CCC(=O)N[C@H](/C=C/C(=O)O)Cc1ccc(-c2cc(Cl)cc(Cl)c2)cc1
yes

Quick check: does CCCC(=O)OCC1OC(n2cnc3c(=S)nc(N)[nH]c32)C(OC(=O)CCC)C1OC(=O)CCC (centres undefined) have growth greater than or equal to 80%?
no

Answer whether growth of Cc1csc(-c2nnc(Nc3ccc(Oc4ncccc4-c4ccnc(N)n4)cc3)c3ccccc23)c1 is greater than or equal to 80%.
no

Dear colleague, could you confirm whether Nc1c2c(c(O)c3c1=C(CO)C=N3)=NCCS2=O (centres undefined) has growth at or above 80%?
no

Has O=C(O)c1ccc(Nc2ncc3c(n2)-c2ccc(Cl)cc2C(c2c(F)cccc2F)=NC3)cc1 a recorded growth greater than or equal to 80%?
no

Is growth at least 80%? Consider Ic1ccccc1-c1ccccc1
yes

Is the recorded value of growth equal to or greater than 80% for this compound? Clc1ccc(Nc2nccc(Nc3ccc4[nH]ncc4c3)n2)cc1
no

Kindly determine if growth recorded for COc1ccc(-c2cnc(-c3ccc(Cl)cc3)[nH]2)cc1OC is above or exactly 80%.
yes

Does the compound COC(=O)C1=C(C(=O)OC)C23C=C(C)C1C2=C(C)C1(CC1)[C@@](C)(O)C3=O (some centres undefined) have recorded growth that is 80% or more?
no

Kindly determine if growth recorded for Cc1ccc(Nc2nccc(N(C)c3ccc4c(C)n(C)nc4c3)n2)cc1S(N)(=O)=O is above or exactly 80%.
no

====

# System: OVCAR-8 ovarian
# test_method_notes: NCI-60 one-dose screen, 48 h
# test_parameters: 10 µM unless noted
About 83,000 compounds went through this panel and 20% of them were active in at least one assay; those are over-represented in the sample as a whole. The source made the active and inactive calls. The calls were made as follows: active = growth percent below 10; inactive = the rest.
Pick one and only one: TRUE = active, FALSE = inactive

Tell me the recorded outcome of this test for CCOC(=O)C1=C(C)NC(=O)NC1c1cc(=O)oc2ccc(C)cc12 (centres undefined) .
FALSE

Given CC(C)NC[C@@H](C(=O)N1CCN(c2ncnc3c2[C@H](C)C[C@H]3O)CC1)c1ccc(Cl)cc1 , state the outcome it received in this test.
FALSE

Dear colleague, could you share the recorded outcome for CCN1CCN(Cc2ccc(Cc3ncc(F)c(-c4cc(F)c5nc(C)n(C(C)C)c5c4)n3)nc2)CC1 when you have a moment?
FALSE

Query: recorded result category for O=C(NCCO)Nc1ccc(-c2nc(N3CCOCC3)c3cccn3n2)cc1 in this test
TRUE

For S=C(NCc1ccc2c(c1)OCO2)N1CCN(c2ncnc3c2oc2ccccc23)CC1 , which call appears in the assay record?
FALSE

Look up the recorded call for CCC1(/C=N/NC(N)=S)NC(=O)NC1=O (centres undefined) in this test.
FALSE

Check the results log: what was the call for COC(=O)[C@]12CC[C@@H](C)[C@H](C)[C@@H]1C1=CC[C@@H]3[C@@]4(C)C[C@@H](OC(=O)/C=C/c5ccccc5)[C@H](O)[C@@](C)(CO)[C@@H]4[C@H](O)C[C@@]3(C)[C@]1(C)CC2 ?
FALSE

Assay outcome for COC1CCC(N2C(=O)CNc3ncc(-c4ccc(C(C)(C)O)nc4)nc32)CC1 (centres undefined) : what was it?
TRUE

Lab log entry: CCN(CC)CCOc1ccc(/C(=C(\C)c2ccc(Cl)cc2)c2ccc(Cl)cc2)cc1 — outcome as called in the assay?
FALSE

====

# Test system: SNB-19 CNS
# test_method_notes: NCI-60 one-dose screen, 48 h (100 = growth as untreated, 0 = no growth, -100 = all killed)
# test_parameters: 10 µM unless noted
This is part of a sample that, as a whole, favours compounds with a hit. Of some 83,000 tested, about 20% had one in any assay.
Kindly apply the following: 1.0 if growth is less than 50%, 0.0 in every other case.

Does the reported growth of O=C(NO)c1ccc(Cn2c(=O)n(CCc3ccccc3)c(=O)c3ccccc32)cc1 stay below 50%?
1.0

Below 50% on growth? Entry C=C1C(=O)O[C@H]2[C@H]1CC/C(CNC(=O)c1cc3cc(OC)ccc3[nH]1)=C\CC[C@@]1(C)O[C@@H]21
1.0

Does this compound meet the criterion growth < 50%? CC[C@H](Nc1ncnc2nc[nH]c12)c1nc2cccc(F)c2c(=O)n1-c1ccccc1
0.0

I'd appreciate it if you could check whether COc1ccc2c(CCCC(c3ccccc3)c3ccccc3)c3[n+](cc2c1OC)CCc1cc2c(cc1-3)OCO2 has growth smaller than 50%.
1.0

growth strictly < 50% for this compound? Cn1ccnc1C(=O)/C=C/c1ccc(CC(=O)Nc2ccc(C(F)(F)F)cc2)cc1
1.0

I wonder whether Nc1nc(Nc2ccccc2)c(C=Nc2ccccc2)c(=O)[nH]1 has growth below 50%. Can you tell?
0.0

Does Cc1ccc(NC(=O)c2ccc(CN3CC[C@H](N(C)C)C3)c(C(F)(F)F)c2)cc1Nc1nccc(-c2cncnc2)n1 have growth strictly under 50%?
1.0

Strictly below 50% in growth? Cc1cc(C(O)CN(C)C)cc2c1ccc1cc(C(C)C)ccc12 (centres undefined)
0.0

Please check: growth for COC(=O)C1=C(C(=O)OC)C23C=C(C)C1C2=C(C)C1(CC1)[C@@](C)(O)C3=O (some centres undefined) , strictly under 50% or not?
1.0
